Please provide measured IC50 for the entries that follow.
# TARGET_OF_ASSAY: PKC epsilon (Homo sapiens, UniProt Q02156)
# Construct: purchased Invitrogen P2282
# ASSAY_DETAILS: Biochemical assay for PKC epsilon (fluorescence polarization, Protein Kinase C Assay Kit, Red)
# STATED_CONDITIONS: Table 2, compounds of Formula XIII; read-out: IC50 μM PKCε
Counter-ions that a name gives are not always drawn.

compound="NC(CNC(=O)Cc1csc(-c2ccccc2)n1)c1ccc(C(=O)Nc2ccncc2)cc1 (centres unmarked)" target_of_assay="PKC epsilon (Homo sapiens, UniProt Q02156)" result="5 to 50 µM"
compound="NC(CNC(=O)C1CCCCC1)c1ccc(C(=O)Nc2ccncc2)cc1 (centres unmarked)" target_of_assay="PKC epsilon (Homo sapiens, UniProt Q02156)" result="5 to 50 µM"
compound="NC(CNC(=O)c1ccc2cc[nH]c2c1)c1ccc(C(=O)Nc2ccncc2)cc1 (centres unmarked)" target_of_assay="PKC epsilon (Homo sapiens, UniProt Q02156)" result="5 to 50 µM"
compound="NC(CNC(=O)Cc1ccc(F)c(F)c1)c1ccc(C(=O)Nc2ccncc2)cc1 (centres unmarked) [Compound 167, dihydrochloride]" target_of_assay="PKC epsilon (Homo sapiens, UniProt Q02156)" result="0.05 to 0.5 µM"
compound="NC(CNC(=O)C1CCc2ccc(F)cc21)c1ccc(C(=O)Nc2ccncc2)cc1 (centres unmarked)" target_of_assay="PKC epsilon (Homo sapiens, UniProt Q02156)" result="0.05 to 0.5 µM"
compound="CC(C)CC(=O)NCC(N)c1ccc(C(=O)Nc2ccncc2)cc1 (centres unmarked)" target_of_assay="PKC epsilon (Homo sapiens, UniProt Q02156)" result="0.5 to 5 µM"
compound="NC(CNC(=O)CC1CC1)c1ccc(C(=O)Nc2ccncc2)cc1 (centres unmarked)" target_of_assay="PKC epsilon (Homo sapiens, UniProt Q02156)" result="0.5 to 5 µM"
compound="CCCOc1ccc(C(=O)NCC(N)c2ccc(C(=O)Nc3ccncc3)cc2)cc1 (centres unmarked)" target_of_assay="PKC epsilon (Homo sapiens, UniProt Q02156)" result="5 to 50 µM"
compound="COc1cccc(CC(=O)NCC(N)c2ccc(C(=O)Nc3ccncc3)cc2)c1 (centres unmarked)" target_of_assay="PKC epsilon (Homo sapiens, UniProt Q02156)" result="0.5 to 5 µM"
compound="NC(CNC(=O)c1ccc(=O)[nH]n1)c1ccc(C(=O)Nc2ccncc2)cc1 (centres unmarked)" target_of_assay="PKC epsilon (Homo sapiens, UniProt Q02156)" result="5 to 50 µM"

For the 5 compounds below, give their IC50 values.
1. NC(CNC(=O)c1cccs1)c1ccc(C(=O)Nc2ccncc2)cc1 (centres unmarked)
2. NC(CNC(=O)CC1C=CCC1)c1ccc(C(=O)Nc2ccncc2)cc1 (centres unmarked)
3. COc1ccc(CC(=O)NCC(N)c2ccc(C(=O)Nc3ccncc3)cc2)cc1F (centres unmarked)
4. CC(=O)NCC(N)c1ccc(C(=O)Nc2ccncc2)cc1 (centres unmarked)
5. CC(=NOCC(=O)NCC(N)c1ccc(C(=O)Nc2ccncc2)cc1)c1ccccc1 (centres unmarked)

Data returned:
0.05 to 0.5 µM
0.5 to 5 µM
0.5 to 5 µM
5 to 50 µM
0.5 to 5 µM

For the 4 compounds below, give their IC50 values.
1. NC(CNC(=O)C1(c2ccc(Cl)c(Cl)c2)CCC1)c1ccc(C(=O)Nc2ccncc2)cc1 (centres unmarked)
2. NC(CNC(=O)c1c[nH]cn1)c1ccc(C(=O)Nc2ccncc2)cc1 (centres unmarked)
3. NC(CNC(=O)CC1Cc2ccccc2C1)c1ccc(C(=O)Nc2ccncc2)cc1 (centres unmarked)
4. NC(CNC(=O)CC1CCCCC1)c1ccc(C(=O)Nc2ccncc2)cc1 (centres unmarked)

Data returned:
1. 0.05 to 0.5 µM
2. 5 to 50 µM
3. 0.5 to 5 µM
4. 0.5 to 5 µM

* * *

# TARGET_OF_ASSAY: human ROCKα/ROCKII mix (Homo sapiens, UniProt O75116)
# Construct: purchased Upstate Biotechnology 14-451
# Sequence (O75116 11-552 limits assumed): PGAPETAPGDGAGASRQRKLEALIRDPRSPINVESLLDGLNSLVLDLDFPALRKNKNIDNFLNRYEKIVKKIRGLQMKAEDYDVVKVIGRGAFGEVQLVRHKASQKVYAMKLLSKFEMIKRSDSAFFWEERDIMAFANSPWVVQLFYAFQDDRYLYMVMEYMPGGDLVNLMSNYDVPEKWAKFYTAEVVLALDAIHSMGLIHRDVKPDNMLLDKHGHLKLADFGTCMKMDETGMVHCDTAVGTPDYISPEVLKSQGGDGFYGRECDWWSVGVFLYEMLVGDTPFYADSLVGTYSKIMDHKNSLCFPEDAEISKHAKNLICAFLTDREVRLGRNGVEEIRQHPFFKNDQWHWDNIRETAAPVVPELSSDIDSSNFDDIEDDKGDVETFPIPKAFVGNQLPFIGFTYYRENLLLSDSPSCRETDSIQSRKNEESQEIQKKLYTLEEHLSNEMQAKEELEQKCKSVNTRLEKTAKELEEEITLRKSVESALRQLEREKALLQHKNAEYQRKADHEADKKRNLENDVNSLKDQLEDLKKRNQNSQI
# ASSAY_DETAILS: Biochemical assay for ROCK (fluorescence polarization, ROCK IMAP Kit)
MEASUREMENT_TYPE: IC50

Example results:
molecule="CC(C)(C(=O)N1CCCC1C(N)c1ccc(C(=O)Nc2ccncc2)cc1)c1ccsc1 (stereo not shown) [Compound 550]" result="0.5 to 5 µM"
molecule="NC(c1ccc(C(=O)Nc2ccncc2)cc1)C1CCCN1C(=O)C(c1ccccc1)C1CCCCC1 (stereo not shown) [Compound 555]" result="0.5 to 5 µM"
molecule="COc1ccc(CC(=O)N(C)CC(N)c2ccc(C(=O)Nc3ccncc3)cc2)cc1 (stereo not shown) [Compound 427]" result="0.05 to 0.5 µM"

Data request: Data request, read-out IC50, for CN(CC(N)c1ccc(C(=O)Nc2ccncc2)cc1)C(=O)C1(c2ccc(F)c(F)c2)CCC1 (stereo not shown) [Compound 487]
Data returned: 0.5 to 5 µM

* * *

# TARGET_OF_ASSAY: PKC epsilon (Homo sapiens)
# Construct: purchased Invitrogen P2282
# Sequence (Q02156 1-737): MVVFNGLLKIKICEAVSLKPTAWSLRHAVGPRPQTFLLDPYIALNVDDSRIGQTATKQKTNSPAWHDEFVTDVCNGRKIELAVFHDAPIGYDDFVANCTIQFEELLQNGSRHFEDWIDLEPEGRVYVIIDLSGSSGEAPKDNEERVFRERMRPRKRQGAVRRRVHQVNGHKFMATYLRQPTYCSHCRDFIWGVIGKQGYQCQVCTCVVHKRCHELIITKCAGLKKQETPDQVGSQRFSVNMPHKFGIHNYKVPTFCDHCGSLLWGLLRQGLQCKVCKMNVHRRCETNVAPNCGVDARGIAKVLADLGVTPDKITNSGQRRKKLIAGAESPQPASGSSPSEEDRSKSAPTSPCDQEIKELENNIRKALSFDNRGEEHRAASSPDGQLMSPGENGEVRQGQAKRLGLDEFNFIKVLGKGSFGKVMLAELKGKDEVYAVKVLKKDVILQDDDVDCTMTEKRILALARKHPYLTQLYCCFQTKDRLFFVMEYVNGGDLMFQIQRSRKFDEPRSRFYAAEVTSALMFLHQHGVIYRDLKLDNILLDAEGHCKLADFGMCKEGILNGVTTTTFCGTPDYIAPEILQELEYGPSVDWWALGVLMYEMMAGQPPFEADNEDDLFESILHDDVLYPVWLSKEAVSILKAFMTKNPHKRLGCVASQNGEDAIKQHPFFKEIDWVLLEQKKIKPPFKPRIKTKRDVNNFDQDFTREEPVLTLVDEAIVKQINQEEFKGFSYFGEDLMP
# ASSAY_DETAILS: Biochemical assay for PKC epsilon (fluorescence polarization, Protein Kinase C Assay Kit, Red)
# STATED_CONDITIONS: read-out: IC50 μM PKCε
# Experimental: The compounds were tested for inhibition of PKC epsilon. The inhibition assays were performed with a fluorescence polarization (FP) assay using the commercially available Protein Kinase C Assay Kit, Red, from Invitrogen (Product ID. No. P2941), essentially in accordance with the protocol supplied by the manufacturer. […] The results were fitted to a curve using the XL-Fit algorithm and […] were calculated for each fitted curve, again using the XL-Fit algorithm.
MEASUREMENT_TYPE: IC50

compound="NC(CNC(=O)Nc1cccc2ccccc12)c1ccc(C(=O)Nc2ccncc2)cc1 (centres unmarked)" result="0.5 to 5 µM"
compound="CN(CC(N)c1ccc(C(=O)Nc2ccncc2)cc1)C(=O)C1(c2ccc(Cl)cc2F)CC1 (centres unmarked)" result="0.5 to 5 µM"
compound="CN(CC(N)c1ccc(C(=O)Nc2ccncc2)cc1)C(=O)Cc1cccc(Cl)c1F (centres unmarked)" result="5 to 50 µM"
compound="CN(CC(N)c1ccc(C(=O)Nc2ccncc2)cc1)C(=O)C1(c2ccc(Cl)c(Cl)c2)CCC1 (centres unmarked)" result="5 to 50 µM"
compound="NC(c1ccc(C(=O)Nc2ccncc2)cc1)C1CCCN1C(=O)Cc1ccc(O)c([N+](=O)[O-])c1 (centres unmarked)" result="5 to 50 µM"
compound="COc1ccccc1CC(=O)N(C)CC(N)c1ccc(C(=O)Nc2ccncc2)cc1 (centres unmarked)" result="5 to 50 µM"
compound="NC(c1ccc(C(=O)Nc2ccncc2)cc1)C1CCCN1C(=O)Cc1ccccc1 (centres unmarked)" result="0.5 to 5 µM"

Here's the next entry for you.
Data request: Data request, read-out IC50, for CN(CC(N)c1ccc(C(=O)Nc2ccncc2)cc1)C(=O)Cc1ccc(F)cc1Cl (centres unmarked)
Data returned: 5 to 50 µM

* * *

Please provide measured IC50 for the entries that follow.
# TARGET_OF_ASSAY: PKC epsilon (Homo sapiens)
# Construct: purchased Invitrogen P2282
# ASSAY_DETAILS: Biochemical assay for PKC epsilon (fluorescence polarization, Protein Kinase C Assay Kit, Red)
# STATED_CONDITIONS: Table 2, compounds of Formula XIII; read-out: IC50 μM PKCε
# Protocol: The compounds were tested for inhibition of PKC epsilon. The inhibition assays were performed with a fluorescence polarization (FP) assay using the commercially available Protein Kinase C Assay Kit, Red, from Invitrogen (Product ID. No. P2941), essentially in accordance with the protocol supplied by the manufacturer. […] The results were fitted to a curve using the XL-Fit algorithm and […] were calculated for each fitted curve, again using the XL-Fit algorithm.

compound="NC(CNC(=O)C1(c2ccc(Cl)cc2F)CC1)c1ccc(C(=O)Nc2ccncc2)cc1 (centres unmarked)" measurement_type=IC50 result="< 0.05 µM"
compound="CCC(Oc1ccccc1)C(=O)NCC(N)c1ccc(C(=O)Nc2ccncc2)cc1 (centres unmarked)" measurement_type=IC50 result="0.5 to 5 µM"

For the 3 compounds below, give their IC50 values.
1. NC(CNC(=O)c1nccc2ccccc12)c1ccc(C(=O)Nc2ccncc2)cc1 (centres unmarked)
2. CCC(CC)(C(=O)NCC(N)c1ccc(C(=O)Nc2ccncc2)cc1)c1ccccc1 (centres unmarked)
3. COc1cccc2cc(C(=O)NCC(N)c3ccc(C(=O)Nc4ccncc4)cc3)oc12 (centres unmarked)

Data returned:
1: 0.5 to 5 µM; 2: < 0.05 µM; 3: 5 to 50 µM
